# Test system: K12877-001-R-J1-PDC complex spheroid viability;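 also: tumour cells co-cultured with HUVEC and mesenchymal stem cells in spheroids; spheroids exposed to agents for one week before readout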
# EXPERIMENT DESCRIPTION: Anticancer human tumor K12877-001-R-J1-PDC patient-derived lung adenocarcinoma cell line growth inhibition [RAS]
# CONDITION SET: second compound 0.0949 µM; first compound 0.000949 µM; active compounds read low
# viability, T/C per entry
Give the number; % is assumed, so skip it.

{"COMPOUND": "CC1(C)CCC(Nc2ncc(C(F)(F)F)c(-c3c[nH]c4c(P(C)(C)=O)c(C#N)ccc34)n2)CN1 (centres undefined) + CCn1c(-c2cc(N3CCN(C)CC3)cnc2C(C)OC)c2c3cc(ccc31)-c1csc(n1)CC(NC(=O)C1CC1C)C(=O)N1CCCC(N1)C(=O)OCC(C)(C)C2", "viability, T/C, %": 111}
{"COMPOUND": "CCc1c2c(nc3ccc(O)cc13)-c1cc3c(c(=O)n1C2)COC(=O)[C@]3(O)CC + CCn1c(-c2cccnc2C(C)OC)c2c3cc(ccc31)N1CCOC(CC(NC(=O)C(C(C)C)N(C)C(=O)C3(F)CCN(C(=O)C#CC(C)(C)N(C)C)CC3)C(=O)N3CCCC(N3)C(=O)OCC(C)(C)C2)C1", "viability, T/C, %": 75.5}
{"COMPOUND": "CC1(C)CCC(Nc2ncc(C(F)(F)F)c(-c3c[nH]c4c(P(C)(C)=O)c(C#N)ccc34)n2)CN1 (centres undefined) + CCn1c(-c2cccnc2C(C)OC)c2c3cc(ccc31)N1CCOC(CC(NC(=O)C(C(C)C)N(C)C(=O)C3(F)CCN(C(=O)C#CC(C)(C)N(C)C)CC3)C(=O)N3CCCC(N3)C(=O)OCC(C)(C)C2)C1", "viability, T/C, %": 72.8}

Shifting focus to the compound that follows.
Q: Report viability, T/C for CCc1c2c(nc3ccc(O)cc13)-c1cc3c(c(=O)n1C2)COC(=O)[C@]3(O)CC + CCn1c(-c2cc(N3CCN(C)CC3)cnc2C(C)OC)c2c3cc(ccc31)-c1csc(n1)CC(NC(=O)C1CC1C)C(=O)N1CCCC(N1)C(=O)OCC(C)(C)C2 please.
A: 94.8

Reference source for all entries: PubChem BioAssay AID2060894
